- TARGET OR TEST SYSTEM: UniProtKB Q14973
- EXPERIMENT: Screening taurocholate uptake assay (96-well, [14C]taurocholate, 10 µM drug)
- TEST SETTINGS: combined ranking of functional and binding screening assays
Where a name gives a salt, the structure may show the parent alone.
MEASURED METRIC: Ranking score
Give the figure by itself; no unit, no explanation.

Entry CC(C)(C)NCC(O)c1cc(Cl)c(N)c(Cl)c1 (stereo not shown) [Clenbuterol hydrochloride] — recorded Ranking score = 497.397

Entry O=c1cc(-c2ccc(O)c(O)c2)oc2cc(O)cc(O)c12 [Luteolin] — recorded Ranking score = 585.624

Entry CC(C)(C#N)c1cc(Cn2cncn2)cc(C(C)(C)C#N)c1 [Anastrozole] — recorded Ranking score = 558.153

Entry CC(=O)N[C@@H](CC(C)C)C(=O)O [N-Acetyl-L-leucine] — recorded Ranking score = 463.866

Entry CC(C)N1CCN(c2ccc(OCC3COC(Cn4cncn4)(c4ccc(Cl)cc4Cl)O3)cc2)CC1 (stereo not shown) [Terconazole] — recorded Ranking score = 502.144

Entry C[C@]12C/C(=C/O)C(=O)C[C@@H]1CC[C@@H]1[C@@H]2CC[C@@]2(C)[C@H]1CC[C@]2(C)O [Oxymetholone] — recorded Ranking score = 467.145

Entry CO[C@H]1/C=C/O[C@@]2(C)Oc3c(C)c(O)c4c(O)c(c5c(nc6cc(C)ccn65)c4c3C2=O)NC(=O)/C(C)=C\C=C\[C@H](C)[C@H](O)[C@@H](C)[C@@H](O)[C@@H](C)[C@H](OC(C)=O)[C@@H]1C [Rifaximin] — recorded Ranking score = 627.999

Entry CCN(CC)CCNc1ccc(CO)c2sc3ccccc3c(=O)c12 [Hycanthone] — recorded Ranking score = 491.684

Entry CCCCC1(COC(=O)CCC(=O)O)C(=O)N(c2ccccc2)N(c2ccccc2)C1=O [Suxibuzone] — recorded Ranking score = 1138

Entry CCOC(=O)OC(C)OC(=O)[C@@H]1N2C(=O)[C@@H](NC(=O)[C@H](N)c3ccccc3)[C@H]2SC1(C)C (stereo partly shown) [Bacampicillin hydrochloride] — recorded Ranking score = 500.635

Entry CN1[C@@H]2CC(OC(=O)[C@H](CO)c3ccccc3)C[C@H]1[C@@H]1O[C@@H]12.Cl (stereo partly shown) [Scopolamine hydrochloride] — recorded Ranking score = 577.314

Entry O=C(CCCN1CCC2(CC1)C(=O)NCN2c1ccccc1)c1ccc(F)cc1 [Spiperone] — recorded Ranking score = 571.731

Entry O=c1[nH]c(=O)n(C2CCCO2)cc1F (stereo not shown) [Tegafur] — recorded Ranking score = 518.446

* * *

- TARGET OR TEST SYSTEM: human NTCP (Homo sapiens)
- EXPERIMENT: Screening taurocholate uptake assay (96-well, [14C]taurocholate, 10 µM drug)
- TEST SETTINGS: Prestwick library screen, 10 µM drug; B-score of taurocholate uptake
Structures can show the parent of a compound that is named as a salt.
Mark true only when B-score functional assay stays strictly below 1. Values equal to the cut-off are false.

Check if B-score functional assay falls below 1 for CC(C)NCC(O)c1ccc(NS(C)(=O)=O)cc1 (centres unmarked) [Sotalol hydrochloride] .
true

Check if B-score functional assay falls below 1 for COc1cccc(N(C)C(=S)Oc2ccc3c(c2)CCCC3)n1 [Liranaftate] .
true

Check if B-score functional assay falls below 1 for Cc1cccc(C)c1NC(=O)C(C)N (centres unmarked) [Tocainide hydrochloride] .
false

Check if B-score functional assay falls below 1 for CO[C@@]1(NC(=O)Cc2cccs2)C(=O)N2C(C(=O)O)=C(COC(N)=O)CS[C@@H]21 [Cefoxitin sodium salt] .
false

Check if B-score functional assay falls below 1 for Nc1ncn([C@@H]2O[C@H](CO)[C@@H](O)[C@H]2O)c(=O)n1 [Azacytidine-5] .
true

Check if B-score functional assay falls below 1 for Cc1[nH]c(=O)c(C#N)cc1-c1ccncc1 [Milrinone] .
true

Check if B-score functional assay falls below 1 for Cc1ncc([N+](=O)[O-])n1CCO [Metronidazole] .
false

* * *

- TARGET OR TEST SYSTEM: human NTCP (Homo sapiens, UniProt Q14973)
- Sequence (Q14973 whole entry): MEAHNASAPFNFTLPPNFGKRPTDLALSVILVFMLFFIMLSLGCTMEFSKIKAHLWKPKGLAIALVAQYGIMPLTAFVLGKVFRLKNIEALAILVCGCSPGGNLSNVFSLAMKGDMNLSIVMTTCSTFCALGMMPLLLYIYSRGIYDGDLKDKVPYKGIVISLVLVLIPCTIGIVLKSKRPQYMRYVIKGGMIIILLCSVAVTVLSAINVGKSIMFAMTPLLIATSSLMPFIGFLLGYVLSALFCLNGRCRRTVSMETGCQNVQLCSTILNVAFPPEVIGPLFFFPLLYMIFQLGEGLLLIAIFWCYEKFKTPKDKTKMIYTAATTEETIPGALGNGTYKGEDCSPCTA
- EXPERIMENT: Screening taurocholate uptake assay (96-well, [14C]taurocholate, 10 µM drug)
- TEST SETTINGS: combined ranking from functional and binding screening assays
Tick y if Ranking score is 400 or greater. Tick n if Ranking score is less than 400.

Is the recorded value of Ranking score equal to or greater than 400 for this compound? COc1ccc(C(CN(C)C)C2(O)CCCCC2)cc1 (stereo not shown)
y

Is the recorded value of Ranking score equal to or greater than 400 for this compound? Nc1ncnc2c1ncn2[C@@H]1O[C@H](CO)[C@@H](O)[C@@H]1O
n

Is the recorded value of Ranking score equal to or greater than 400 for this compound? NC1CCN(c2c(F)cc3c(=O)c(C(=O)O)cn(C4CC4)c3c2Cl)C1 (stereo not shown)
n

Is the recorded value of Ranking score equal to or greater than 400 for this compound? N=C(N)NCC1COC2(CCCCC2)O1.N=C(N)NCC1COC2(CCCCC2)O1.O=S(=O)(O)O (stereo not shown) [Guanadrel sulfate]
n

Is the recorded value of Ranking score equal to or greater than 400 for this compound? N[C@@H](Cc1cc(I)c(Oc2cc(I)c(O)c(I)c2)c(I)c1)C(=O)O
y

Is the recorded value of Ranking score equal to or greater than 400 for this compound? CS(=O)(=O)Nc1ccc([N+](=O)[O-])cc1Oc1ccccc1 [Nimesulide]
y

Is the recorded value of Ranking score equal to or greater than 400 for this compound? CC(=O)OCC(=O)[C@@]1(O)CC[C@H]2[C@@H]3CCC4=CC(=O)CC[C@]4(C)[C@@]3(F)[C@@H](O)C[C@@]21C [Fludrocortisone acetate]
y

Is the recorded value of Ranking score equal to or greater than 400 for this compound? CC(C)(C)NCC(O)c1cc(O)cc(O)c1.CC(C)(C)NCC(O)c1cc(O)cc(O)c1.O=S(=O)(O)O (stereo not shown) [Terbutaline hemisulfate]
n

Is the recorded value of Ranking score equal to or greater than 400 for this compound? C[C@]12C=CC(=O)C=C1CC[C@@H]1[C@@H]2C(=O)C[C@@]2(C)[C@H]1CC[C@]2(O)C(=O)CO
y

Is the recorded value of Ranking score equal to or greater than 400 for this compound? Nc1cc(-c2ccncc2)c[nH]c1=O
n

Is the recorded value of Ranking score equal to or greater than 400 for this compound? CC[C@H](C)C(=O)O[C@H]1CCC=C2C=C[C@H](C)[C@H](CC[C@@H]3C[C@@H](O)CC(=O)O3)[C@H]21
n

* * *

- TARGET OR TEST SYSTEM: human NTCP (Homo sapiens)
- EXPERIMENT: Screening taurocholate uptake assay (96-well, [14C]taurocholate, 10 µM drug)
- TEST SETTINGS: combined ranking from functional and binding screening assays
Structures can show the parent of a compound that is named as a salt.
MEASURED METRIC: Ranking score
Give the figure by itself; no unit, no explanation.

Entry CCN(CC)CCCC(C)Nc1c2ccc(Cl)cc2nc2ccc(OC)cc12.Cl.Cl (centres unmarked) [Quinacrine dihydrochloride hydrate] — recorded Ranking score = 399.375

Entry CCC1=C[C@@H]2CN3CCc4c([nH]c5ccccc45)[C@@](C(=O)OC)(C2)[C@@H]13 — recorded Ranking score = 448.328

Entry COc1ccc2cc([C@H](C)C(=O)O)ccc2c1 — recorded Ranking score = 422.428

Entry COc1ccc2[nH]c([S+]([O-])Cc3ncc(C)c(OC)c3C)nc2c1 (centres unmarked) — recorded Ranking score = 423.789

Entry Nc1nc(=O)c2nc(CNc3ccc(C(=O)N[C@@H](CCC(=O)O)C(=O)O)cc3)cnc2[nH]1 — recorded Ranking score = 436.211

Entry O=C(O)CCc1nc(-c2ccccc2)c(-c2ccccc2)o1 — recorded Ranking score = 341.015

Entry Nc1[nH]c(=O)ncc1F — recorded Ranking score = 352.224

Entry C[N+](C)(CCOc1ccccc1)Cc1ccccc1.O=C([O-])c1cc2ccccc2cc1O [Bephenium hydroxynaphthoate] — recorded Ranking score = 452.073

Entry CCCN[C@H]1CCc2nc(N)sc2C1 [Pramipexole dihydrochloride] — recorded Ranking score = 303.528

Entry CN(C)CCC(c1ccccc1)c1ccccn1 (centres unmarked) [Pheniramine maleate] — recorded Ranking score = 447.397

Entry O=C(c1ccccc1)c1ccc2n1CCC2C(=O)O (centres unmarked) — recorded Ranking score = 396.636

Entry COCCc1ccc(OCC(O)CNC(C)C)cc1.COCCc1ccc(OCC(O)CNC(C)C)cc1.O=C(O)C(O)C(O)C(=O)O (racemic) [Metoprolol-(+,-) (+)-tartrate salt] — recorded Ranking score = 295.567

Entry CN(N=O)C(=O)N[C@H]1C(O)O[C@H](CO)[C@@H](O)[C@@H]1O (mixture of isomers) — recorded Ranking score = 307.444

Entry O=C(O)c1cn(-c2ccc(F)cc2)c2cc(N3CCNCC3)c(F)cc2c1=O — recorded Ranking score = 305.771
